Reference source for all entries: the supplement of paper PMC10567573

# protocol_description: protein stability index of a GFP-peptide fusion (GPS, HEK-293T) (PSI 1-6); higher = more stable;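 note: 24-mer peptide tiles fused after GFP, lentivirally expressed, FACS-sorted into six equal bins by GFP/DsRed ratio, decoded by Illumina sequencing, PSI is the read-weighted mean bin number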
# test_conditions: treatment: MLN4924 1 uM, 8 h; c terminus: a fixed tail appended

sequence_input: TVEPGKLDVGATEGQDLQHISNQK [DRICH1]
protein stability index: 5.4
//
sequence_input: RKMSLLKFLAKVNGSDPRSFPLWY [MAGEA10]
protein stability index: 2.01
//
sequence_input: ARYTMPSSLLAPAKHLIASMLSKN [PLK2]
protein stability index: 2.91
//
sequence_input: PLTFDKNENMAAKKKSVAMHTNYL [GNB5]
protein stability index: 3.46
//
sequence_input: LFLDLLQSYKDLCERHEKGVLHKH [SNX8]
protein stability index: 2.64
//
sequence_input: EQEPIGTDLDAVRTPEPLEEFPKR [MYBL2]
protein stability index: 5.18
//
sequence_input: SSPDDKLLTSPRAINNLVLQGCSS [KLHL14]
protein stability index: 4.14
//
sequence_input: LMRAQRNYMVQTEDQYIFIHDALL [PTPRD]
protein stability index: 2.41
//
sequence_input: VEGKGNGIKTVIVNMVDVAKALNR [EIF5]
protein stability index: 2.22
//
sequence_input: IHSREKRGDSVKVENPSTASHSLS [ZNF649]
protein stability index: 5.22
//
sequence_input: LGSDDINVVTCAAGILSNLTCNNY [CTNNB1]
protein stability index: 2.37
//
sequence_input: LEKVECTPSQEHLKHQTVYRLLKC [FEM1A]
protein stability index: 3.07
//
sequence_input: MLLELTRRGQEPLSALLQFGVTYL [BCL2L13]
protein stability index: 2.4
//
sequence_input: GAAVGTGSSYPTTTISYLPHAPPF [JUNB]
protein stability index: 3.35
//
sequence_input: AEDAVYGRDGYDYDGYRLRVEFPR [SRSF1]
protein stability index: 3.44
//
sequence_input: FDVETRHVFIGDHSGQVTILKLEQ [WDFY2]
protein stability index: 2.43
//
sequence_input: WVHKHFTEDIQTRQYRSIEVLIGA [SRPK2]
protein stability index: 2.27
//
sequence_input: EAAKGGHTSVVCYLLDYPNNLLSA [ANKRD17]
protein stability index: 2.06
//
sequence_input: ISSIEAQLSELRSEMECQNQEYKM [KRT13]
protein stability index: 4.69
//
sequence_input: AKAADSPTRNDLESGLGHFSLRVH
protein stability index: 3.42
//
sequence_input: ERRPVAQSTDGARGKRGYSRGLHA [SPSB2]
protein stability index: 4.58
//
sequence_input: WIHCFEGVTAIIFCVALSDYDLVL [GNAI1]
protein stability index: 3.22
//
sequence_input: QIKAIRGSNEYTEGPSVVKRPAPR [SPRY1]
protein stability index: 4.47
//
sequence_input: QEEAIAQFPYVEFTGRDSITCLTC [TMEM106C]
protein stability index: 2.57
//
sequence_input: AHSSDVLENVFSSLTDDKYDVAMN [GOLPH3L]
protein stability index: 4.7
//
sequence_input: KRKVDTGGFLSESKDCKPPVYLLL [MYBL2]
protein stability index: 2.61
//
sequence_input: QIFFGRRKDMIAEKLAPSEITEEL [ZNF396]
protein stability index: 3.74
